Measured values drawn from PubChem BioAssay (NCI) for this set.

System: NCI-H226 lung
protocol_text: NCI-60 one-dose screen, 48 h (100 = growth as untreated, 0 = no growth, -100 = all killed)
test_settings: 10 µM unless noted
This is part of a sample that, as a whole, favours compounds with a hit. Of some 83,000 tested, about 20% had one in any assay.
recorded_metric: growth (%)
One number for each entry, in %.

// worked examples, growth included
CCNC(=O)N1CCc2cc(OC)c(OCCc3ccc(OC)cc3)cc2C1c1ccc(OC)cc1C (stereo not given): 33.5
C=CCn1c(-c2nc3ccc(C(=C(C#N)C#N)c4ccccc4)cc3[nH]2)cc2cc(Br)ccc21: 66.4
CS(=O)(=O)c1ncc(-c2ccccc2)cn1: 101
O=C1CCC(N2C(=O)c3ccc(NS(=O)(=O)c4ccccc4OC(F)(F)F)cc3C2=O)C(=O)N1 (stereo not given): 44.7

We now examine a further compound.
Input line: Indicate the recorded growth value for this compound: `Cc1cc(C)cc(C(=O)Nc2cccc(C#Cc3cccc4[nH]nc(N)c34)c2)c1`
Output line: 67.3
